biological target: Kv7.2 (Homo sapiens); construct: expressed in transfected cells; host or cells: CHO cells (ATCC CRL-9618), transient transfection, pcDNA3.1(+); experiment: Whole-cell patch-clamp on CHO cells transiently expressing Kv7.2; type: cell-based; conditions: ratio of ramp-evoked Kv7.2 current amplitude in presence and absence of drug at -40 mV; CHO cells; mean±SEM; >1 activating, <1 inhibiting; further: test concentration or dose not given here
Consider the following compounds; for each one, report its Idrug/Ictl at -40 mV.

Quick check: Idrug/Ictl at -40 mV of `O=C(c1ccc(F)cc1)N1CCc2cc(NS(=O)(=O)C3CCCCC3)ccc21` ?
1.85±0.30

Reported Idrug/Ictl at -40 mV for `O=S(=O)(Nc1ccc2c(c1)CCN2Cc1ccc(C(F)(F)F)cc1C(F)(F)F)C1CCCCC1` : what is it?
1.53±0.39

// Idrug/Ictl at -40 mV lookup, key: `CC(=O)Nc1ccc2c(c1)CCN2Cc1ccc(F)cc1`
1.88±0.14

So what's the measured Idrug/Ictl at -40 mV for this one? `COc1ccc(CN2CCc3cc(NS(=O)(=O)C4CCCCC4)ccc32)cc1`
6.43±1.51

// lookup Idrug/Ictl at -40 mV for `COc1ccc(Cn2ccc3cc(NS(=O)(=O)C4CCCCC4)ccc32)cc1`
2.00±0.36

Reported Idrug/Ictl at -40 mV for `O=C(CC1CCCCC1)Nc1ccc2c(c1)CCN2Cc1ccc(F)cc1` : what is it?
2.37±0.40

So what's the measured Idrug/Ictl at -40 mV for this one? `CCOC(=O)Nc1ccc2c(c1)CCN2Cc1ccc(F)cc1`
2.01±0.58

Suppose we examine the compound `O=S(=O)(Nc1ccc2c(c1)CCN2Cc1ccc(F)c(F)c1)C1CCCCC1` ; what Idrug/Ictl at -40 mV value has been reported?
4.56±1.11

Returns the measured Idrug/Ictl at -40 mV for the input compound. Input: `O=C(Nc1ccc2c(c1)CCN2Cc1ccc(F)cc1)NC1CCCCC1`
0.95±0.16

# lookup: Idrug/Ictl at -40 mV of `O=S(=O)(Nc1ccc2c(c1)CCN2Cc1ccc(F)cc1)N1CCCCCC1`
0.89±0.12

Look at this compound and give its reported Idrug/Ictl at -40 mV. `O=S(=O)(Nc1ccc2c(c1)CCN2CCc1ccc(F)cc1)C1CCCCC1`
3.24±1.52

Entry `CC(C)[C@H]1CC[C@H](C)C[C@@H]1OC(=O)Nc1ccc2c(c1)CCN2Cc1ccc(F)cc1` : reported Idrug/Ictl at -40 mV = ?
0.80±0.14

What does the data say about its Idrug/Ictl at -40 mV? Entry: CC1CC(C)CN(S(=O)(=O)Nc2ccc3c(c2)CCN3Cc2ccc(F)cc2)C1 (stereo not drawn)
1.91±0.44

Give the measured Idrug/Ictl at -40 mV of `Nc1cc(NCc2ccc(C(F)(F)F)cc2)ccc1NS(=O)(=O)C1CCCCC1` .
1.5±0.2

Could you share which Idrug/Ictl at -40 mV value was measured for `CCCCCCC(=O)Nc1ccc2c(ccn2Cc2ccc(C(F)(F)F)cc2)c1` ?
9.34±0.82

Consider the compound shown here: `CCCCCCC(=O)Nc1ccc(NCc2ccc(OC(F)(F)F)cc2)cc1N` What is its recorded Idrug/Ictl at -40 mV?
12.4±2.05

Look up Idrug/Ictl at -40 mV: `CCCCS(=O)(=O)Nc1ccc2c(c1)CCN2Cc1ccc(F)cc1`
2.03±0.19

Recorded Idrug/Ictl at -40 mV of `CN1CCN(S(=O)(=O)Nc2ccc3c(c2)CCN3Cc2ccc(F)cc2)CC1` , please.
1.25±0.19

Please report the recorded Idrug/Ictl at -40 mV for `O=[N+]([O-])c1cc(Br)ccc1CN1CCc2cc(NS(=O)(=O)C3CCCCC3)ccc21` .
7.27±1.32

# input compound: `CC(C)(C)CC(=O)Nc1ccc2c(ccn2Cc2ccc(C(F)(F)F)cc2)c1` ; wanted: its Idrug/Ictl at -40 mV
8.23±1.36

Which Idrug/Ictl at -40 mV is reported for this compound? `CCCCCCC(=O)Nc1ccc(NCc2ccc(C(F)(F)F)cc2)c(F)c1N`
5.76±1.28

Can you look up the measured Idrug/Ictl at -40 mV of `O=S(=O)(CCC1CCCCC1)Nc1ccc2c(ccn2Cc2ccc(F)cc2)c1` for me?
1.64±0.10

Recorded Idrug/Ictl at -40 mV for `O=S(=O)(Nc1ccc2c(c1)CCN2Cc1ccc(F)cc1)c1ccccc1` , please?
1.15±0.28

Could you share which Idrug/Ictl at -40 mV value was measured for `CCCCCCC(=O)Nc1ccc(NCc2ccc(C(F)(F)F)cc2)cc1N` ?
16.90±3.33

Recorded Idrug/Ictl at -40 mV for `CC1(C)[C@@H]2CC[C@@]1(CS(=O)(=O)Nc1ccc3c(c1)CCN3Cc1ccc(F)cc1)C(=O)C2` , please?
1.12±0.05

Quick one: Idrug/Ictl at -40 mV of `O=S(=O)(Nc1ccc2c(ccn2Cc2ccc(F)cc2)c1)C1CCCCC1` ?
4.71±1.31

What does the record list as Idrug/Ictl at -40 mV for `O=S(=O)(Nc1ccc(NCc2ccc(F)cc2)c(F)c1)C1CCCCC1` ?
0.78±0.15

Reported Idrug/Ictl at -40 mV, compound `CC(C)(C)CNC(=O)Nc1ccc2c(c1)CCN2Cc1ccc(F)cc1` : ____
3.31±0.61

Can you share its Idrug/Ictl at -40 mV? I mean this compound: CCOC(=O)Nc1ccc(NCc2ccc(F)cc2)cc1N [Retigabine, reference compound]
6.20±1.03

Request the reported Idrug/Ictl at -40 mV associated with `COCCOCC(=O)Nc1ccc2c(ccn2Cc2ccc(C(F)(F)F)cc2)c1`
1.50±0.16
